assay_explanation: Dissociation constant, pKa of the compound
Type: physicochemical
measurement_label: pKa

>  <compound_string>
CCCCCCCCCCCC(=O)NCCCC[C@H](N)C(=O)OC.Cl

>  <measurement_label>
pKa

>  <measured_value>
8.2

$$$$

// below: pKa requested for another compound
Task: Can you look up the measured pKa of `CCCCCCCCCCCCCC(=O)NCCCC[C@H](N)C(=O)OC.Cl` for me?
Output: 7.8

---

assay_explanation: Toxicity in human erythrocytes assessed as hemolytic activity
Format: cell-based, Erythrocyte
measurement_label: pIC50
Numbers only, as −log10 of the molar value.

>  <compound_string>
CCCCCCCCCCCC(=O)N[C@@H](CCCCN)C(=O)OC

>  <pIC50>
3.70

$$$$
>  <compound_string>
CCCCCCCCCCCCCCCC(=O)NCCCC[C@H](N)C(=O)OC.Cl

>  <pIC50>
2.84

$$$$
>  <compound_string>
CCCCCCCCCCCC(=O)NCCCC[C@H](N)C(=O)OC.Cl

>  <pIC50>
3.41

$$$$
>  <compound_string>
CCCCCCCCCCCCCC(=O)NCCCC[C@H](N)C(=O)OC.Cl

>  <pIC50>
2.91

$$$$

// below: pIC50 requested for another compound
Task: What value of pIC50 has been reported for the following compound? `CCCCCCCCCCCC(=O)N[C@@H](CCCNC(=N)N)C(=O)OC`
Output: 3.82
